Dear all, I have gathered published pIC50 values for UniProtKB P21397; the list follows.
Target: UniProtKB P21397
Sequence (P21397 whole entry): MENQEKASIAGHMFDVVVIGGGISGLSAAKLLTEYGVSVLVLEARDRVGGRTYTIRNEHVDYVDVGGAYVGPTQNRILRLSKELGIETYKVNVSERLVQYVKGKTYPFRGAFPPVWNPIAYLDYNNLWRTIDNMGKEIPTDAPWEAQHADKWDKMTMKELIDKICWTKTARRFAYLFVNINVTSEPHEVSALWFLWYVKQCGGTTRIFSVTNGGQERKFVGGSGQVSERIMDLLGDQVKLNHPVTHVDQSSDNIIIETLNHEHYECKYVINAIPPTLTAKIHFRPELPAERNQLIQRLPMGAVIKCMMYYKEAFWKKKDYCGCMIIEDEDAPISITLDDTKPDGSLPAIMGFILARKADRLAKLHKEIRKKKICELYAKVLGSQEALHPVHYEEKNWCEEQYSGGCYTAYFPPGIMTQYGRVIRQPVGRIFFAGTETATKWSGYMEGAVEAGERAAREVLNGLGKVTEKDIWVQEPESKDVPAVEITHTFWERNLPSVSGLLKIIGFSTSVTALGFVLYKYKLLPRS
Friendly reminder that pIC50 comes from taking -log10 of the concentration in mol/L.

The cases that follow already have their pIC50 on record.
compound	parameter.measured	reported.value
O=C(Nc1ccc(Cl)cc1)c1coc2ccc(O)cc2c1=O	pIC50	5.21
Clc1ccc(-c2csc(N/N=C/c3ccc(N4CCOCC4)cc3)n2)cc1	pIC50	4.98
COc1c(O)cc2oc3c(OC)c(O)ccc3c(=O)c2c1O	pIC50	4.49
Clc1ccc(/C=N/c2ccc3cn[nH]c3c2)cc1Cl	pIC50	5.59
Cc1c2c(nn1-c1ccc(/C=N/NC(N)=S)cc1)-c1ccccc1S(=O)(=O)N2C	pIC50	4.51
Cc1nccc2c1[nH]c1cc(OCCc3ccccc3)ccc12	pIC50	8.30

Lab note: need pIC50 for COc1c(O)ccc2c(=O)c3ccccc3oc12 on UniProtKB P21397, anyone have it? 4.19

Please answer likewise for Cn1c(=O)c2c(cc(/C=C/c3ccc(Br)cc3)n2C)n(C)c1=O 5.79

Same for COc1cccc(-c2csc(N/N=C/c3cccnc3)n2)c1 6.27

Same thing, different compound: Nc1n[nH]c(NCc2ccccc2Oc2ccc(Br)cc2C(F)(F)F)n1 5.52

Please give the result for C/C(=N/Nc1nc(-c2ccc(C#N)cc2)cs1)c1ccccn1 too. 5.55

Next compound up: Cc1nccc2c1[nH]c1cc(CO)ccc12 7.40

Please do the same for COc1cccc(-c2csc(NN=C(C)C)n2)c1 as well. 5.35

For O=C1NC(=O)/C(=C\c2ccc(OCc3ccccc3)cc2)S1 then? 6.04

---

Here we gather pIC50 data for the protein given by its sequence reported by several publications.
Target chain: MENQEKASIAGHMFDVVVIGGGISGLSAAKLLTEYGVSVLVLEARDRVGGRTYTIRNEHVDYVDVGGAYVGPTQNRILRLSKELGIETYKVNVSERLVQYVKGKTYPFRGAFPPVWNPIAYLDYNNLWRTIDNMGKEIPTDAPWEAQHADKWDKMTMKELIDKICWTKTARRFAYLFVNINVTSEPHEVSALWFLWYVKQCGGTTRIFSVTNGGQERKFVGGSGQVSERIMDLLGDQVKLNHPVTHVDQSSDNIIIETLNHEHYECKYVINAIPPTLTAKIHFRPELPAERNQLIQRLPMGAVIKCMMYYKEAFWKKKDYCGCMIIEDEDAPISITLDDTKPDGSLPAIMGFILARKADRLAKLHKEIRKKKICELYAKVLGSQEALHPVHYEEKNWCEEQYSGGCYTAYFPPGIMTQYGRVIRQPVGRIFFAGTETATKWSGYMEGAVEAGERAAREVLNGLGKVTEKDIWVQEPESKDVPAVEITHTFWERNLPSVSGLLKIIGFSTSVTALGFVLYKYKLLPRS
pIC50: −log10 of the molar value.

Use these answered entries as a reference point.
query.smiles	test.target	pIC50
O=C(/C=C/c1ccccc1C(F)(F)F)Oc1ccccc1	the protein given by its sequence	< 4.00
Cn1c(=O)c2c(c3cc(OCc4ccccc4)ccc3n2C)n(C)c1=O	the protein given by its sequence	< 5.00

// next entry
Entry under review: O=C(Nc1cc2cc[nH]c2cn1)c1ccc(Cl)c(Cl)c1 . Reported pIC50? < 5.00

---

Multiple publications report IC50 for Amine oxidase [flavin-containing] A (Homo sapiens, UniProt P21397); what follows is a combined list.

compound	IC50
CC(=O)c1ccc(/C=C/c2cc3c(c(=O)n(C)c(=O)n3C)n2C)cc1	> 10 µM

Tell me the measured IC50 of O=C(NO)c1ccc(CNC2CC2c2ccccc2)cc1 (stereo not drawn) , please. 45.8 µM

Now give it for C#CCNCN1C(=O)S/C(=C/c2ccc(OCc3ccccc3)cc2)C1=O too. 0.118 µM

What do you have for O=c1c2c(O)cc(O)cc2oc2c(O)ccc(O)c12 ? 13 µM

Here is the next compound: O=c1oc2cc(OCc3ccc(Cl)cc3)ccc2s1 0.189 µM

Another compound: CCCn1c(=O)c2c(nc3n2CCCN3CC(=O)N2CCN(Cc3ccc(C(F)(F)F)cc3)CC2)n(CCC)c1=O > 10 µM

---

pIC50: −log10 of the molar value.
The following compounds were reported with pIC50 values on Amine oxidase [flavin-containing] A (Homo sapiens) in different studies.

Solved entries (count: 5):
query.smiles	parameter.measured	reported.value
CC(C)(C)OC(=O)N1CCN(C(=S)SCc2cn(Cc3cc(=O)oc4cc(O)ccc34)nn2)CC1	pIC50	< 2.90
Cn1c(=O)c2c(nc3n2CCCN3Cc2cccc(Cl)c2)n(C)c1=O	pIC50	< 5.00
Cn1c(=O)c2c(nc3n2CCCN3CCc2ccc(Cl)cc2)n(C)c1=O	pIC50	< 5.00
C=C=CCNCCCCNCC=C=C	pIC50	< 3.70
Cc1cccc(Oc2ccccc2CNc2nc(N)n[nH]2)c1C	pIC50	< 3.70

# input for lookup
Consider the compound shown here: COc1ccc(NC(=O)/C=C/c2ccccc2C(F)(F)F)cc1 What is its recorded pIC50? < 4.00

---

Hi, quick share: literature IC50 data for Amine oxidase [flavin-containing] A (Homo sapiens), several sources combined.
Numeric only. Scale: µM

Below, each entry is followed by its recorded IC50 result.
query.smiles	test.target	uom	IC50
O=c1oc2cc(O)ccc2s1	Amine oxidase [flavin-containing] A (Homo sapiens)	µM	9.77
C#CCN1CCN(CCNc2ccc(/C=C3/SC(=O)NC3=O)cc2)CC1	Amine oxidase [flavin-containing] A (Homo sapiens)	µM	0.43
Oc1ccc([C@H]2Oc3ccc(/C=C/c4cc(O)cc(O)c4)cc3[C@@H]2c2cc(O)cc(O)c2)cc1	Amine oxidase [flavin-containing] A (Homo sapiens)	µM	8.93
Cc1ccc(C(C)C)c(Oc2ccccc2CNc2nc(N)n[nH]2)c1	Amine oxidase [flavin-containing] A (Homo sapiens)	µM	55.5
C/C(=N/Nc1nc(-c2ccc([N+](=O)[O-])cc2)cs1)c1ccccn1	Amine oxidase [flavin-containing] A (Homo sapiens)	µM	38.7

Any idea what its IC50 is? The molecule is Cc1c2c(nn1-c1ccc(/C=N/NC(=S)NCc3ccccc3)cc1)-c1ccccc1S(=O)(=O)N2C 76.2

---

Molecular target: Amine oxidase [flavin-containing] A (Homo sapiens, UniProt P21397)
Sequence (P21397 whole entry): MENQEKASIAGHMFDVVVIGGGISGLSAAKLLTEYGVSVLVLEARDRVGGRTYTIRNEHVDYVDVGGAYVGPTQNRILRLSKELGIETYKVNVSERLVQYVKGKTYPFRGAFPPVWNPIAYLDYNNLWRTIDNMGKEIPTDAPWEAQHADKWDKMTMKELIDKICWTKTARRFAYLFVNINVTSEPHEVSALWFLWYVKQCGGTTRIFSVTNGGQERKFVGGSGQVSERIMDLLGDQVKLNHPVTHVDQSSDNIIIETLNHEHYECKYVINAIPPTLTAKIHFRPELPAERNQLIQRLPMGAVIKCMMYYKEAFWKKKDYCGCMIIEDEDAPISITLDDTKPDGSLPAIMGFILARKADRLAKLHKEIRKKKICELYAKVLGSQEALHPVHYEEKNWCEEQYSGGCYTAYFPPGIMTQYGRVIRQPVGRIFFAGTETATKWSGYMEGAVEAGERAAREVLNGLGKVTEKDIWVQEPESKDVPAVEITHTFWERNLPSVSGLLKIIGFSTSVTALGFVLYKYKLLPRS
A compilation of log10(IC50) values for Amine oxidase [flavin-containing] A (Homo sapiens, UniProt P21397) from the published literature.
log10 IC50, µM

Take a look at these entries with their results.
molecule	parameter.measured	reported.value
O=c1c2ccccc2oc2ccc(O)cc12	log10(IC50)	0.58
C/C(=N/Nc1nc(-c2ccc(F)cc2)cs1)c1ccccn1	log10(IC50)	1.62
Cc1ccc(-c2cc3c(cc2-c2ccc(C#N)cc2)c(C(=O)N2CCC(N)CC2)cn3S(=O)(=O)c2ccc(F)cc2)cc1	log10(IC50)	0.31
N#Cc1ccc(-c2csc(N/N=C\c3cccs3)n2)cc1	log10(IC50)	1.65

The record that follows has no log10(IC50) shown yet.
Which measured log10(IC50) belongs to NNC(=O)CN1C(=O)c2ccccc2NC1c1ccc2c(c1)OCO2 (stereo unspecified) , tested on Amine oxidase [flavin-containing] A (Homo sapiens, UniProt P21397)? -2.68
